System: A498 renal
test-details: NCI-60 one-dose screen, 48 h
experimental-parameters: 10 µM unless noted
This is part of a sample that, as a whole, favours compounds with a hit. Of some 83,000 tested, about 20% had one in any assay. The source made the active and inactive calls. Rule for the calls: active = growth percent below 10; inactive = the rest.
Log the outcome using a class from active, inactive

Please review the entries below; each comes with its answer.
• COc1cc(/C=C/C(=O)c2nc3cc(F)ccc3nc2C)cc(OC)c1OC = inactive
• O=C(/C(=C\c1ccc([N+](=O)[O-])cc1)S(=O)Cc1ccc(Cl)cc1)c1ccc(Cl)cc1 (stereo not drawn) = inactive
• CC/C(=C\c1ccc(OC)cc1)C(=O)c1ccc(OC)cc1 = inactive
• Cc1ncc(C(=O)Nc2ccc(CN3CCN(C)CC3)c(C(F)(F)F)c2)cc1C#Cc1cnc(N)cc1C#N = active
• O=C1/C=C/[C@@H](O)[C@@H]2C[C@@H](O)C[C@H]2/C=C/CCC[C@H](CCc2ccc3ncccc3c2)O1 = active
• COc1ccc(/C=C/c2nc(Nc3ccc(S(=O)(=O)Nc4cc(C)on4)cc3)c3ccccc3n2)cc1 = active
• C=C(CBr)[C@@H]1CC[C@]2(COC(C)=O)CC[C@]3(C)[C@H](CC[C@@H]4[C@@]5(C)CCCNC(C)(C)[C@@H]5CC[C@]43C)[C@@H]12 = inactive

Record request — test call for N#CC(C(=O)/C(=N/NC(=O)c1ccccc1O)C(C#N)c1ccccc1)c1ccccc1 (stereo not drawn) inactive
